Listing of entries alongside the reported solubility.
Assay: Peptide solubility in PBS buffer at 1 mg/mL
Format: physicochemical
Conditions: pH 7.4, 1 mg/mL
Positions of bridges follow the written chain, without caps; N, C: chain ends. Residues, ends and D or L forms follow the SMILES beside them.
Reported endpoint: solubility

compound="CSCC[C@H](NC(=O)[C@H](Cc1ccc(O)cc1)NC(=O)[C@@H]1CSSC[C@H](NC(=O)[C@@H](N)Cc2ccccc2)C(=O)N[C@@H](CC(=O)O)C(=O)NCC(=O)N[C@@H](Cc2ccccc2)C(=O)N[C@@H](Cc2ccc(O)cc2)C(=O)N[C@@H](C)C(=O)N1)C(=O)N[C@@H](CC(=O)O)C(=O)N[C@H](C(N)=O)C(C)C [Peptide 1]" reported_endpoint=solubility result="< 1000 µg/mL"
compound="CSCC[C@H](NC(=O)[C@H](Cc1ccc(O)cc1)NC(=O)[C@@H]1CSSC[C@H](NC(=O)[C@@H](N)Cc2ccccc2)C(=O)N[C@@H](CC(=O)O)C(=O)NCC(=O)N[C@@H](Cc2ccccc2)C(=O)N[C@@H](Cc2ccc(O)cc2)C(=O)N[C@@H](C)C(=O)N1)C(=O)N[C@@H](CC(=O)O)C(=O)N[C@H](C(=O)O)C(C)C [Peptide 2]" reported_endpoint=solubility result="< 1000 µg/mL"
compound="CSCC[C@H](NC(=O)[C@H](Cc1ccc(O)cc1)NC(=O)[C@@H]1CSSC[C@H](NC(=O)[C@@H](N)Cc2ccccc2)C(=O)NCC(=O)N[C@@H](CC(=O)O)C(=O)NCC(=O)N[C@@H](Cc2ccccc2)C(=O)N[C@@H](Cc2ccc(O)cc2)C(=O)N[C@@H](C)C(=O)N1)C(=O)N[C@@H](CC(=O)O)C(=O)N[C@H](C(=O)O)C(C)C [Peptide 8] (H-FCGDGFYACYMDV-OH; disulfide 2-9; N-terminus assumed)" reported_endpoint=solubility result="> 1000 µg/mL"
